Hello, the source for this data is patent US12104181B2, in case you need it.

test system: coxsackievirus B3 (CVB3-GFP); assay type: cell-based; conditions: HeLa cells, GFP-positive cells within RFP-positive gate, replicate R1
ASSAY ENDPOINT: Percent Infected R1
The answer should read as a number with its unit following.

Request: Query Percent Infected R1 for RNF212: human RING type E3 ligase expressed from lentiviral vector (protein, UniProt Q495C1 1-297, looked up) Probable E3 SUMO-protein …: MANWVFCNRCFQPPHRTSCFSLTNCGHVYCDACLGKGKKNECLICKAPCRTVLLSKHTDADIQAFFMSIDSLCKKYSRETSQILEFQEKHRKRLLAFYREKISRLEESLRKSVLQIEQLQSMRSSQQTAFSTIKSSVSTKPHGCLLPPHSSAPDRLESMEVDLSPSPIRKSEIAAGPARISMISPPQDGRMGPHLTASFCFIPWLTLSKPPVPGECVISRGSPCFCIDVCPHWLLLLAFSSGRHGELTNSKTLPIYAEVQRAVLFPFQQAEGTLDTFRTPAVSVVFPLCQFERKKSF
Result: 91.1%

Request: Give Percent Infected R1 for the following molecule: RNF2: human RING type E3 ligase expressed from lentiviral vector (protein, UniProt Q99496 2-336, looked up) E3 ubiquitin-protein ligase …: SQAVQTNGTQPLSKTWELSLYELQRTPQEAITDGLEIVVSPRSLHSELMCPICLDMLKNTMTTKECLHRFCADCIITALRSGNKECPTCRKKLVSKRSLRPDPNFDALISKIYPSRDEYEAHQERVLARINKHNNQQALSHSIEEGLKIQAMNRLQRGKKQQIENGSGAEDNGDSSHCSNASTHSNQEAGPSNKRTKTSDDSGLELDNNNAAMAIDPVMDGASEIELVFRPHPTLMEKDDSAQTRYIKTSGNATVDHLSKYLAVRLALEELRSKGESNQMNLDTASEKQYTIYIATASGQFTVLNGSFSLELVSEKYWKVNKPMELYYAPTKEHK
Result: 87.4%
